- Assay: reduced viability of SK-BR-3 breast cancer cells – cell-based, 24 h, human, pilot screen (AID 572);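 also: compound exposure lasted between 18 and 24 h rather than exactly 24 h; 100% = carrier-treated control wells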
- Settings: SK-BR-3 viability, CellTiter-Glo luminescence, at 10 µM, active compounds read low
Observed property: viability (%)

>>> print(df.to_string())
                                    molecule  observed_property  test_value
 0  COc1cccc(-c2nc(CS(=O)(=O)CC(=O)NCc3ccc(Cl)cc3)c(C)o2)c1          viability        72.5
 1          CCCc1cc(=O)oc2c(C)c3occ(C)c3cc12          viability         112
 2              O=C(CSc1nnc2ccccn12)c1ccccc1          viability          99
 3  CC1CCN(c2c(NCc3ccc(C(=O)N4c5ccccc5CC4C)cc3)c(=O)c2=O)CC1 (configuration not stated)          viability          95
 4  COc1cccc(C(=O)Nc2cc(C)c3c(=O)oc4ccccc4c3n2)c1          viability        80.5
 5  CCc1ccc(N(CC(=O)NC2CCCC2)S(=O)(=O)c2c(C)noc2C)cc1          viability         102
 6            Cn1ccnc1SCC(=O)Nc1ccc2ccccc2c1          viability        96.5
 7  COc1ccc(NC(=O)CC2Sc3ncnn3C2=O)cc1 (configuration not stated)          viability         109
 8  CC(C)(C)NC(=O)CSc1nnc(-c2ccccn2)n1-c1ccccc1          viability        98.5
 9  CC(=O)c1cc2c(cc1NC(=O)CN1CCN(C(=O)c3ccco3)CC1)OCO2          viability          90
10             COCCNC(=O)CN1C(=O)CSc2ncccc21          viability        83.5
11  CC1(C)C(c2ccccc2)=NC(c2ccccc2)N1O (configuration not stated)          viability        86.5
12  O=C(CCCn1c(=O)[nH]c2ccsc2c1=O)N1CCN(c2ccccn2)CC1          viability          89
13                   Cc1nnc(NC(=O)c2ccco2)s1          viability        98.5
14   COc1ccc(-c2nc(CCNC(=O)c3ccco3)cs2)cc1OC          viability        96.5
15       Cc1ccc(-n2nc(C)c3cc(C(=O)O)sc32)cc1          viability          97
16  COC(=O)c1cn(NC(=O)c2cccnc2)c(=O)c2ccccc12          viability          88
17              Cn1c(/C=N/n2cnnc2)nc2ccccc21          viability         100
18  CC1CN(c2c3c(nc4ncnn24)CCCC3)CC(C)O1 (configuration not stated)          viability        89.5
19  Cc1cc(C)n2nc(S(=O)(=O)N(C)c3ccccc3)nc2n1          viability         103
20  O=C(Nc1ccccc1)C1=C(O)CC(c2ccoc2)CC1=Nc1ccccc1 (configuration not stated)          viability          93
21  CC(C)C(NC(=O)c1ccc(S(=O)(=O)N2CCOCC2)cc1)c1nc2ccccc2[nH]1 (configuration not stated)          viability         104
22            COc1ccc(C/C(N)=N/n2cnnc2)cc1Cl          viability          94
23  CC1CCN(C(=O)CSc2nc3c(cnn3-c3ccccc3)c(=O)[nH]2)CC1          viability        82.5
24  COc1ccc(C2CC(c3ccco3)n3ncnc3N2)cc1 (configuration not stated)          viability          88
25  COCCn1c(=N)c(C(=O)NCCc2ccccc2)cc2c(=O)n3cccc(C)c3nc21          viability        63.5
26  O=C(Nc1ccncc1)C1CCCN(S(=O)(=O)c2cccc3cccnc23)C1 (configuration not stated)          viability        84.5
27  CCC(C)C(=O)Nc1nc2c(s1)C(=O)CC(C)(C)C2 (configuration not stated)          viability         120
28  CCOC(=O)c1cc2c(=O)n3ccccc3nc2n(CC(C)C)c1=NC(=O)c1ccco1          viability        84.5
29  COc1ccc(N2CCN(C(=O)C(C)(C)Oc3ccc(Cl)cc3)CC2)cc1          viability          85
30     COc1cc(-c2nc(-c3ccncc3)no2)cc(OC)c1OC          viability         100
31                 O=C(c1cccs1)N1CCc2ccccc21          viability         110
32       Cc1ccc(CSc2nc3c(c(=O)[nH]2)CCC3)cc1          viability        86.5
33  COc1ccc(N2CCN(C(=O)c3c(-c4ccccc4)noc3C)CC2)cc1          viability        91.5
34     COc1ccc(/C=N/O)cc1COc1ccc(NC(C)=O)cc1          viability         115
35  Clc1cccc(N2CCN(Cc3nc(-c4ccccc4)no3)CC2)c1          viability        90.5
36  CC(C)c1ccc(C(O)c2cnc(C(C)C)n2C)cc1 (configuration not stated)          viability         112

====

- Assay: S. cerevisiae growth inhibition in restrictive medium, OD615, pilot screen, restrictive growth control, yeast lifespan reduction project (AID 706);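 also: modified DeaD lifespan yeast strain shifted to restrictive glucose medium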
- Settings: OD615, 48 h, at 10 µM, active compounds read high
Attribute: growth inhibition
Observed property: growth inhibition (%)

>>> print(df.to_string())
                                    compound  observed_property  units  test_value
 0  CNC(=O)c1ccccc1NC(=O)c1c(O)c2c([nH]c1=O)CCCC2  growth inhibition      %       -10.1
 1  O=C(NC1(C(=O)NC2CCCCC2)CCCCC1)c1ccc2c(c1)OCO2  growth inhibition      %        10.5
 2                  CN1CCC(NC(=O)c2cccs2)CC1  growth inhibition      %        17.3
 3            Cc1cc2ncn(C(=O)N3CCOCC3)c2cc1C  growth inhibition      %       -2.19
 4  CC1CCCN(c2ncnc3c2cnn3-c2ccccc2)C1 (stereo not given)  growth inhibition      %       -4.29
 5  CCN(C1CCCCC1)S(=O)(=O)c1ccc(S(=O)(=O)N2CCN(CCC#N)CC2)cc1  growth inhibition      %        3.67
 6  CCCCN(C)CCNC(=O)Cn1ncc2c(=O)oc3ccc(C)cc3c21  growth inhibition      %       0.355
 7  O=C(O)C1CC=CCC1C(=O)Nc1cccc(F)c1 (stereo not given)  growth inhibition      %       -0.35
 8  Cc1cc(C)cc(N2C(=O)CC(N3CCOCC3)C2=O)c1 (stereo not given)  growth inhibition      %       -2.19
 9  CC(=O)NC(CCS(C)(=O)=O)C(=O)Nc1cccc(C)c1 (stereo not given)  growth inhibition      %       -11.9
10  COc1ccccc1CNC(=O)C1CCCN(S(=O)(=O)c2cccc3cccnc23)C1 (stereo not given)  growth inhibition      %       -12.7
11  COc1ccc(-n2c(Cc3cccn3C)nnc2SCC(=O)Nc2ccc(Cl)cc2)cc1  growth inhibition      %        8.94
12  CC(=O)NC(CCS(C)(=O)=O)C(=O)Nc1cccc2ccccc12 (stereo not given)  growth inhibition      %       -14.3
13  Cc1c(NC(=O)c2ccc(Br)o2)c(=O)n(-c2ccccc2)n1C  growth inhibition      %       -4.15
14  CCCC(=O)N1CC(=O)Nc2ccc(C)cc2C1c1ccc(F)cc1 (stereo not given)  growth inhibition      %        -8.8
15    CCCCCCn1c(SCCOC)nc2c1c(=O)[nH]c(=O)n2C  growth inhibition      %       -3.65
16                  N#CCC(=O)Nc1ccccc1C(=O)O  growth inhibition      %       0.025
17  CCOC(=O)C1=C(C)NC(=O)NC1c1ccc(OCCO)c(OC)c1 (stereo not given)  growth inhibition      %        1.81
18  Cc1c(C(=O)OC2CCC(C)CC2)[nH]c2c1C(=O)CCC2 (stereo not given)  growth inhibition      %       -6.09
19  CC1CCN(C(=O)CSc2nnc(Cn3c(=O)sc4ccccc43)n2C)CC1  growth inhibition      %          -5

These entries and their values trace back to PubChem BioAssay.
